# System: MS2 coat protein
# protocol.description: apparent KD of MS2 coat protein, switch OFF state (with FMN for OFF switches, without FMN for ON switches); designed switch direction (-1 OFF switch, 1 ON switch): 1; higher = weaker reporter binding
# cond: FMN input: 0 or 200 uM; Eterna round: R93 (includes R88 designs)
Note to self: values exactly at 60 nM are 1 (yes). So apparent KD of MS2 coat protein at or above 60 nM is 1 (yes), below is 0 (no).

Check the entry AGAAAUAAAAGGCAGGAUAUCCAAAAGAAAACAUGAGGAUCACCCAUGUAAAAGAAAAUAAAAUGGGAGAAGGGCCAAAAUAAAG [Fisker 73] : does apparent KD of MS2 coat protein equal or exceed 60 nM? 0 (no)
